Values from the supplement of paper PMC10065799

Molecular target: SHP2-C SH2
Assay: SH2 binding enrichment of the phosphorylated peptide, bacterial display (enrichment ratio); higher = better substrate or ligand; peptides without Tyr show the background
Item-by-item account of SH2 binding enrichment

For orientation, consider the following solved cases.
>  <polymerSequence>
DRKRQYELLKL [KIF4B_Y684]

>  <tgt>
SHP2-C SH2

>  <SH2 binding enrichment>
1.04

$$$$
>  <polymerSequence>
SGDDGYAKDAQ [TENM4_Y1530_K1535Q]

>  <tgt>
SHP2-C SH2

>  <SH2 binding enrichment>
0.769

$$$$
>  <polymerSequence>
GGQEDYDRLRP [RAC3_Y64_A59G]

>  <tgt>
SHP2-C SH2

>  <SH2 binding enrichment>
0.767

$$$$
>  <polymerSequence>
EGLKVYINGTL [ADGRD1_Y183_V184I]

>  <tgt>
SHP2-C SH2

>  <SH2 binding enrichment>
0.659

$$$$
>  <polymerSequence>
ADYPDYKYRPR [SOX11_Y116]

>  <tgt>
SHP2-C SH2;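 further: peptide library displayed on the E. coli surface as eCPX fusions, selected cells deep-sequenced, score is each peptide's frequency after selection divided by its frequency in the input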

>  <SH2 binding enrichment>
1.18

$$$$

Problem: Can you look up the measured SH2 binding enrichment of ALAHKYPGGGG [HBB_Y146_H147P] for me?
Solution: 0.581

Problem: Input VYAANYYKLLG [ROR2_Y645_D644N]
Solution: 0.555

Problem: What about this sequence? KSVITYSPTTG [ITGB3BP_Y32]
Solution: 0.849

Problem: // repeat for LDYNEYVRDLN [HPRT1_Y198_F199V] and report
Solution: 1.03

Problem: Proceed to IVFTSYVLTIL [TAS2R16_Y239_F240V]
Solution: 0.641

Problem: Consider next the sequence NIFSFYLSRDP [CTSD_Y232] in the same way.
Solution: 1.64

Problem: How about this sequence: TWSSSYRSDRL [CRYBB1_Y131]
Solution: 0.722

Problem: Param item: SKGFAYVHFDS [PABPC5_Y149_YF]
Solution: 1.29

Problem: Now this one: TGQEEYSAMRD [KRAS_Y64_A59T]
Solution: 0.704

Problem: Check EKLIQYCQSKS [AKR1B1_Y199_G204S] too.
Solution: 0.755

Problem: WFISFYPQVIM [CTNS_Y143_S139F] , same question.
Solution: 0.618

Problem: Now give it for VATSWYRSPEL [CDKL5_Y177_R175S] too.
Solution: 0.77

Problem: How about LEISPYMLSGR [LRRK2_Y1718] ?
Solution: 0.722

Problem: Queued: CGTPDYIDPEI [PRKCG_Y521_A523D]
Solution: 0.52

Problem: Here is the next sequence: RVSSVYTRSTG [CCR5_Y339_A335V]
Solution: 1.1

Problem: Query DEEYEYMNRRR [ERBB3_Y1199] next
Solution: 0.701

Problem: Further, for TLNHQYDYTFD [CSNK1A1_Y292] ?
Solution: 0.691

Problem: Next up: CQAHGYSCQLI [STK11_Y156_F157S]
Solution: 0.847

====

Molecular target: EPHB1 (UniProt P54762)
Sequence (P54762 whole entry, looked up): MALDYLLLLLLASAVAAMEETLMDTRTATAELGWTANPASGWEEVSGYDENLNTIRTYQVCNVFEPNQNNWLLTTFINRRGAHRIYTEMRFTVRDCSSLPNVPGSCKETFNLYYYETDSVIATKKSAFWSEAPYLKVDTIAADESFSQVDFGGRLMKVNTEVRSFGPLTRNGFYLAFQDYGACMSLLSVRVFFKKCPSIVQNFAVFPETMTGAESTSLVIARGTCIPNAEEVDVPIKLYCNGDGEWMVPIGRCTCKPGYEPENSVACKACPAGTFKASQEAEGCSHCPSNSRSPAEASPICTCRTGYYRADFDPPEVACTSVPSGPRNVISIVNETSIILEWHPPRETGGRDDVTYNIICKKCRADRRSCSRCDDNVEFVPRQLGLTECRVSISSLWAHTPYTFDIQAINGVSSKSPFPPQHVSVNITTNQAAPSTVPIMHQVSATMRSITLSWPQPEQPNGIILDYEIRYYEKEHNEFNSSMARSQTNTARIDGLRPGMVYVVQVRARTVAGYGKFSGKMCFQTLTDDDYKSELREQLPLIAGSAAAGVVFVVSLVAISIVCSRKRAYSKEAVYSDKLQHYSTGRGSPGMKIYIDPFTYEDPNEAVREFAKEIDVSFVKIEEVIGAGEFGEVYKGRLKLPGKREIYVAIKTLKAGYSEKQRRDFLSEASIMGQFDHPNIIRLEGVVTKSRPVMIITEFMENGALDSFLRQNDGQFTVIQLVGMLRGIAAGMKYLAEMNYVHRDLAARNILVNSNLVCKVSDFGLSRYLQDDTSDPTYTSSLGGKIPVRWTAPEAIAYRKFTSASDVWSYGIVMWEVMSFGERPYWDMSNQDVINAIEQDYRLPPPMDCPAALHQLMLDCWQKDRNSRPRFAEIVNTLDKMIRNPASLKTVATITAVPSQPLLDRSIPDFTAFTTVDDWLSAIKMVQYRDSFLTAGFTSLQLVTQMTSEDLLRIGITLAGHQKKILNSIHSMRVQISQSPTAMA
Test: phosphorylation enrichment, bacterial display (enrichment ratio); higher = better substrate or ligand; peptides without Tyr show the background
Binary classification by phosphorylation enrichment, with 0.6 as an inclusive lower bound for 1; all other cases are 0.

>  <polymerSequence>
FSAPNCCYRCG [PPP2CA_Y265_Y265C]

>  <discreteLabel>
1

$$$$

Problem: Does the reported phosphorylation enrichment for KQLYAYKMLMA [TMC2_Y209] fall at or above the 0.6 mark?
Solution: 1

Problem: Would you kindly repeat that for RSRSSYTHSLN [MYCT1_Y116_G119S] ?
Solution: 0

Problem: Lookup RRIHNYRGHLW [VHL_Y112_S111N]
Solution: 1

Problem: Now the same for INMKEYCKKDY [NTN1_Y490_K489E]
Solution: 0

Problem: Would you kindly repeat that for SDVNKYSTAFG [GJB3_Y16_G12D] ?
Solution: 0

Problem: Please do the same for TLNHQYDFTFD [CSNK1A1_Y292_YF] as well.
Solution: 0

Problem: Follow-up entry: IRKKFYRAILE [CHD7_Y1218_Q1214R_YF]
Solution: 0

Problem: Queued: DTNIAYCLHPR [POMT1_Y581_W582C]
Solution: 0

Problem: Check NRLTDYFELLL [BBS10_Y536_P539L_YF] too.
Solution: 1

Problem: LVKDPYVMFPQ [PLEKHG2_Y489_P484L] ?
Solution: 1

Problem: Now consider GDEEDYFEIPG [EGFR_opt_F_2015] and answer again.
Solution: 0

Problem: Try GRVYVYHLSEQ [ITGAE_Y551_R552H] next.
Solution: 1

Problem: Follow-up entry: HEHKGYNANFC [TGFB2_Y341_P338H]
Solution: 0

Problem: Likewise for QPSPSYDSSRG [TCF12_Y70] ?
Solution: 0

Problem: Same again, this time with SGSFRYGSSFE [SELE_Y390_C394F]
Solution: 0

Problem: Then GCKNHYDKDKP [THAP1_Y14_R13H] ?
Solution: 0

Problem: Okay, and YADGVYLALEE [DUOX2_Y70_Q71L] ?
Solution: 1
